target: dopamine transporter (high-affinity uptake of [^3 H]dopamine into striatal nerve endings) (Rattus norvegicus, UniProt P23977); construct: striatal nerve endings (synaptosomes); from tissue; host or cells: striatal nerve endings (synaptosomes); assay: inhibition of high-affinity uptake of [^3 H]dopamine into striatal nerve endings (synaptosomes); type: biochemical
Sequence (P23977 whole entry): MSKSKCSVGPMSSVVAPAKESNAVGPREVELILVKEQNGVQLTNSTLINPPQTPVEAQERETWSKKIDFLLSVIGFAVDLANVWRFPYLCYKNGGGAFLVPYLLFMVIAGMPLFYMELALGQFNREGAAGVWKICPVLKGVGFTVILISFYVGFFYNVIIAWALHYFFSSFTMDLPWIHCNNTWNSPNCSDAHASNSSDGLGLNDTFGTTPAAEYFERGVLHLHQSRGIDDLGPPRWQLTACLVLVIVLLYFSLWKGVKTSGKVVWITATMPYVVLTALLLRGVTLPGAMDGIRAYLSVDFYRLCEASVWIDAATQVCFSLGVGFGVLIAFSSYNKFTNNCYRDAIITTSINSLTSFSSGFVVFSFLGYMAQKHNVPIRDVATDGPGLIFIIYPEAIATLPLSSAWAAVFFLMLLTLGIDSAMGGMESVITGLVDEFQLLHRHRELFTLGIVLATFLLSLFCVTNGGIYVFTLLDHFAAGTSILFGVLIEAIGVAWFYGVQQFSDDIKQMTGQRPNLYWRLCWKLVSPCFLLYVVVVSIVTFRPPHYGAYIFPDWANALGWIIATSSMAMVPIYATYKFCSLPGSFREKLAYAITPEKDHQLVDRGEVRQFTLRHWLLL
propertyMeasured: IC50
Field: value (include unit after the number)

Sample answers from the record:
C=C[C@H]1[C@@H](c2ccc(Cl)cc2)C[C@@H]2CC[C@H]1N2C [Compound 2c, 3β-(4-Chlorophenyl)-2β-vinyltropane] = 3.2 nM
COC(=O)[C@H]1[C@@H](c2ccc(Cl)cc2)C[C@@H]2CC[C@H]1N2C [Compound 1d, reference compound] = 3.2 nM
CN1[C@H]2CC[C@@H]1[C@@H](/C=C/Cl)[C@@H](c1ccc(Cl)cc1)C2 [Compound 2d] = 1.26 nM

Would you kindly look at the next entry?
Q: Can you share its IC50? I mean this molecule: CCOP(=O)(/C=C/[C@H]1[C@@H](OC(=O)c2ccccc2)C[C@@H]2CC[C@H]1N2C)OCC [Compound 2f]
Result: 5500 nM

Ref: patent US5391744A
